- System: DeltatarO mutant
- assay.remarks: S. aureus survival, RN4220 and DeltatarO strains – OD600, teichoic acid synthesis inhibitors, primary screen (AID 463173)
- test.settings: S. aureus RN4220 wild type/DeltatarO growth, OD600, 18 h, stronger effect = lower value, screened at 18.75 µg/mL (by protocol)
About 4,300 (8.3%) of roughly 52,000 compounds were called active. The full list was thinned out, with actives kept by preference.

{"compound": "COC(=O)c1scc(-c2ccc(C)cc2)c1S(=O)(=O)N1CCN(c2ccccc2F)CC1", "survival / %": 118}
{"compound": "CCOC(=O)C1CCCN(S(=O)(=O)c2cc(Br)cc3c2N(C(C)=O)CC3)C1 (stereo not given)", "survival / %": 72}
{"compound": "CCN(CC)N=Nc1ccc(S(=O)(=O)N=C(C)O)cc1", "survival / %": 87}
{"compound": "Cc1nc2ccccc2n1CC(O)COc1ccc(C(=O)O)cc1 (stereo not given)", "survival / %": 46}
{"compound": "Cc1ccc(Cn2nnc3c(=O)[nH]c(C4CCN(S(=O)(=O)/C=C/c5ccccc5)CC4)nc32)cc1", "survival / %": 89}

Data origin, for the record: PubChem BioAssay AID463173
